Below, each entry is listed alongside its reported pIC50.
Molecular target: IDH1^R132C (Homo sapiens, UniProt O75874, R132C)
Sequence (O75874 whole entry R132C): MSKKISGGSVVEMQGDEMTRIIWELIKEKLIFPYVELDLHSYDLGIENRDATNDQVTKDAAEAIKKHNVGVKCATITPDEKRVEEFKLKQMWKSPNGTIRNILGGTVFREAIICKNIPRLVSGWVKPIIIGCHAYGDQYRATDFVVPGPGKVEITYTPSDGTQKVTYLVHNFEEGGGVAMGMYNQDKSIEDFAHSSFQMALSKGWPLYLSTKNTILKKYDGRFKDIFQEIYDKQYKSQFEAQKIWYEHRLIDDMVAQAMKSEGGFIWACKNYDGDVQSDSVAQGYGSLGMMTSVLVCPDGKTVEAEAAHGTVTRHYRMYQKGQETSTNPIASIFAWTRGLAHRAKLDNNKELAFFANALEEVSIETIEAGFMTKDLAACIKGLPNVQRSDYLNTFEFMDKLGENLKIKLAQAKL
Assay: NADPH depletion assay, IDH1 R132C
Here pIC50 is given on a logarithmic scale as minus log10 of the concentration in mol/L.

- CC(Nc1ncc2ccc(=O)n(Cc3c(F)cccc3F)c2n1)c1ccc(CN2CCC(F)(F)CC2)cc1 (centres unmarked): 6.66
- C=CC(=O)N1CC[C@H](Oc2ccc([C@H](C)Nc3ncc4ccc(=O)n(CC)c4n3)cc2)C1: 5.77
- CC(Nc1ncc2ccc(=O)n(CC(C)(C)C)c2n1)c1ccc(C(=O)NC2CCC(F)(F)CC2)c(F)c1 (centres unmarked): 6.82

Q: Provide pIC50 value for the following molecule: `Cc1cc(=O)n(CC(C)(C)C)c2nc(N[C@@H](C)c3ccc(CN4CCCC(F)(F)C4)cc3)ncc12`
Ans: 6.86

----------
Below, each entry is listed alongside its reported IC50.
Target: IDH1^R132C (Homo sapiens, UniProt O75874, R132C)
Test: NADPH depletion assay, IDH1 R132C
The response must be a number in nM with no trailing unit.

- CC(C)[C@H](C)n1c(=O)ccc2cnc(N[C@@H](C)c3ccc(N4CCN(C(=O)OCc5ccccc5)CC4)cc3)nc21: 32

Q: Fill: IC50 (IDH1^R132C (Homo sapiens, UniProt O75874, R132C)) for this compound `CC(C)[C@H](C)n1c(=O)ccc2cnc(N[C@@H](C)c3ccc(-c4ccnc(C(F)(F)F)c4)cn3)nc21`
Ans: 141

Q: Fill: IC50 (IDH1^R132C (Homo sapiens, UniProt O75874, R132C)) for this compound C=CC(=O)N1CCN(C(CC)c2ccc([C@H](C)Nc3ncc4ccc(=O)n(C(C)C)c4n3)cc2)CC1 (stereo partly shown)
Ans: 2

Q: Fill: IC50 (IDH1^R132C (Homo sapiens, UniProt O75874, R132C)) for this compound C=CC(=O)N1CCN(C(CC2CC2)c2ccc(C3(Nc4ncc5ccc(=O)n(C(C)C)c5n4)CC3)cc2)CC1 (stereo not shown)
Ans: 3

Q: Fill: IC50 (IDH1^R132C (Homo sapiens, UniProt O75874, R132C)) for this compound `C[C@H](Nc1ncc2ccc(=O)n(Cc3c(F)cccc3F)c2n1)c1ccc(C(=O)N2CCC(F)(F)CC2)cc1`
Ans: 209

Q: Fill: IC50 (IDH1^R132C (Homo sapiens, UniProt O75874, R132C)) for this compound `CC(C)[C@H](C)n1c(=O)ccc2cnc(N[C@@H](C)c3ccc(CN4CCCC(F)(F)C4)cc3)nc21`
Ans: 11

Q: Fill: IC50 (IDH1^R132C (Homo sapiens, UniProt O75874, R132C)) for this compound C=C(C)C(=O)N1CCN(C(CC)c2ccc([C@H](C)Nc3ncc4ccc(=O)n(C(C)C)c4n3)cc2)CC1 (stereo partly shown)
Ans: 68

----------
Target: IDH1^R132H homodimer enzyme (Homo sapiens, UniProt O75874, R132H)
Sequence (O75874 whole entry R132H): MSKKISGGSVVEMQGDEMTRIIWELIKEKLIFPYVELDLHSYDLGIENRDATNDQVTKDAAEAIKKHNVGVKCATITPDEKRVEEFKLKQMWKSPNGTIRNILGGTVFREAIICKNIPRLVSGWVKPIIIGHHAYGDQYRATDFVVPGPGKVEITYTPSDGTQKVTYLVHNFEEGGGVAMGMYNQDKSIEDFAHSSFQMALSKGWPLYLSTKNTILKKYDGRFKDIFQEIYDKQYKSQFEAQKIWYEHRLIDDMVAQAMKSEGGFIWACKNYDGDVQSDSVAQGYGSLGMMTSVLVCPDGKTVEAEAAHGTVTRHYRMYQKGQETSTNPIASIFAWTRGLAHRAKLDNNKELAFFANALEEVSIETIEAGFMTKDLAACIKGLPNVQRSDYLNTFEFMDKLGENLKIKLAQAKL
Experiment: NADPH depletion assay, IDH1 R132H
reported-property: pIC50
Here pIC50 is given on a logarithmic scale as minus log10 of the concentration in mol/L.

- COC(=O)c1ccc([C@H](C)Nc2ncc3ccc(=O)n(C(C)C)c3n2)cc1: 5.82
- C=CC(=O)N1CCN([C@H](CC)c2ccc([C@H](C)Nc3ncc4ccc(=O)n(C(C)C)c4n3)cc2)CC1: 8.70
- C=CC(=O)N1CCN([C@@H](CC)c2ccc([C@H](C)Nc3ncc4ccc(=O)n(C(C)C)c4n3)cc2)CC1: 8.15
- C[C@H](Nc1ncc2ccc(=O)n(CC(C)(C)C)c2n1)c1ccc(Oc2ccccc2)cc1: 6.93
- C=CC(=O)N1CCN(C(CC)c2ccc([C@H](C)Nc3ncc4ccc(=O)n(C(C)C)c4n3)cc2)CC1 (stereo partly shown): 8.70
- CC[C@H](Nc1ncc2ccc(=O)n(CC(C)(C)C)c2n1)c1ccccc1: 6.32
- CC(C)(C)Cn1c(=O)ccc2cnc(NC3(c4ccccc4)CCC3)nc21: 5.78
- C=CC(=O)N1CCC(Oc2ccc([C@H](C)Nc3ncc4ccc(=O)n([C@@H](C)C(C)C)c4n3)cc2)CC1: 7.11
- C=CC(=O)N1CCN(C(CC2CC2)c2ccc(C3(Nc4ncc5ccc(=O)n(C(C)C)c5n4)CC3)cc2)CC1 (stereo not shown): 8.70
- C[C@H](Nc1ncc2ccc(=O)n(CC(C)(C)C(=O)O)c2n1)c1ccc2ccccc2c1: 5.41

Kindly review the next compound as well.
Q: Provide pIC50 value for the following compound: `C[C@H](Nc1ncc2ccc(=O)n(CC(C)(C)C)c2n1)c1ccc(CN2CCOCC2)cc1`
Ans: 6.62

----------
Biological target: IDH1^R132C (Homo sapiens, UniProt O75874, R132C)
Test: NADPH depletion assay, IDH1 R132C
pIC50: −log10 of the molar value.
If the reported pIC50 equals or exceeds 7, assign 1. If not, assign -1.

* C=CC(=O)N1CCN(Cc2ccc([C@H](C)Nc3ncc4ccc(=O)n(C(C)C)c4n3)cc2F)CC1 | 1

Q: // inclusive: pIC50 at least 7? input: CCC(C)n1c(=O)ccc2cnc(N[C@@H](C)c3ccc(CN4CCCC(F)(F)C4)cc3)nc21 (stereo partly shown)
Ans: 1

Q: // inclusive: pIC50 at least 7? input: `COC(=O)c1ccc([C@H](C)Nc2ncc3ccc(=O)n(CC4(C)COC4)c3n2)cc1`
Ans: -1

Q: // inclusive: pIC50 at least 7? input: `C[C@H](Nc1ncc2ccc(=O)n(Cc3cccc(O)c3)c2n1)c1ccc(Cl)cc1`
Ans: -1

Q: // inclusive: pIC50 at least 7? input: `CC(C)C(=O)N1CCN(Cc2ccc([C@H](C)Nc3ncc4ccc(=O)n(CC(C)(C)C)c4n3)cc2)CC1`
Ans: 1

----------
Molecular target: IDH1^R132C (Homo sapiens, UniProt O75874, R132C)
Construct: purchased not specified
Assay: NADPH depletion assay, IDH1 R132C
Format: biochemical
reported-property: log10 IC50 (log10 of the value in nM)
Heads up: the numbers are on a log10 scale; they represent IC50 in nM.

Check out these entries, answers already filled in.
* CCCn1c(=O)ccc2cnc(N[C@@H](C)c3ccc(CN4CCCCCC4)cc3)nc21 [cpd 102] | 3.45
* C[C@H](Nc1ncc2ccc(=O)n(CC(C)(C)C)c2n1)c1ccc(-c2ccncc2)cc1 [cpd 131] | 2.23
* C[C@H](Nc1ncc2ccc(=O)n(CC(C)(C)C)c2n1)c1ccc(Br)cc1 [cpd 34] | 2.13
* C[C@@H]1CN(Cc2ccc([C@H](C)Nc3ncc4ccc(=O)n(CC(C)(C)C)c4n3)c(F)c2)C[C@H](C)O1 [cpd 151] | 1.30
* C=CC(=O)N1CCC(Oc2ccc([C@H](C)Nc3ncc4ccc(=O)n(CC(C)(C)C)c4n3)cc2)CC1 [cpd 156] | 1.96
* C=CC(=O)N1CCN(C(=O)c2ccc([C@H](C)Nc3ncc4ccc(=O)n([C@@H](C)C(C)C)c4n3)cc2F)CC1 [cpd 191] | 2.06

Q: Fill: log10 IC50 (IDH1^R132C (Homo sapiens, UniProt O75874, R132C)) for this molecule C=CC(=O)N1CCN(C(CC2CC2)c2ccc([C@H](C)Nc3ncc4ccc(=O)n(C(C)C)c4n3)cc2)CC1 (stereo partly shown) [cpd 220]
Ans: 0.00

----------
System: U87MG_IDH1R132H
Test: Cellular 2-HG production assay, U87-MG-IDH1 R132H
Type: cell-based
Details: inhibition of 2HG production, 72 hr incubation, LC-MS/MS
Below, each entry is listed alongside its reported log10(IC50).
Heads up: the numbers are on a log10 scale; they represent IC50 in µM.

Check out these entries, answers already filled in.
* C[C@H](Nc1ncc2ccc(=O)n(CC(C)(C)C)c2n1)c1ccc(C(=O)N2CCC(F)(F)CC2)cc1 | 0.31
* C[C@H](Nc1ncc2ccc(=O)n(CC(C)(C)C)c2n1)c1ccc(Oc2ccccc2)cc1 | -0.29
* C[C@H](Nc1ncc2ccc(=O)n(CC3CCCCC3)c2n1)c1ccc(CN2CCC(F)(F)CC2)cc1 | 0.40

Q: Fill: log10(IC50) (U87MG_IDH1R132H) for this molecule `Cc1ccccc1Cn1c(=O)ccc2cnc(N[C@@H](C)c3ccc(CN4CCC(F)(F)CC4)cc3)nc21`
Ans: 0.21

----------
Below, each entry is listed alongside its reported IC50.
Biological target: IDH1^R132C (Homo sapiens, UniProt O75874, R132C)
Test: NADPH depletion assay, IDH1 R132C
Record the result as a number with its unit.

Q: Provide IC50 value for the following compound: `CC(C)n1c(=O)ccc2cnc(N[C@@H](C)c3ccc([C@H](CC4CC4)N4CCN(C(=O)CCCl)CC4)cc3)nc21`
Ans: 10 nM

Q: Provide IC50 value for the following compound: `C[C@H](Nc1ncc2ccc(=O)n(Cc3c(F)cccc3F)c2n1)c1ccc(C(=O)NC2CCC(F)(F)CC2)cc1`
Ans: 431 nM

Q: Provide IC50 value for the following compound: `C=CC(=O)N1CCN(Cc2ccc([C@H](C)Nc3ncc4ccc(=O)n(CC(C)(C)CO)c4n3)cc2)CC1`
Ans: 115 nM
